assay_notes: Ratio of Kcat to Km for Beta-lactamase TEM-10
Label Yes when kcat/Km is at or above 70000 M⁻¹ s⁻¹; otherwise label No.

CC1(C)S[C@@H]2[C@H](NC(=O)Cc3ccccc3)C(=O)N2[C@H]1C(=O)O: Yes
CC(C)(O/N=C(\C(=O)N[C@@H]1C(=O)N2C(C(=O)[O-])=C(C[n+]3ccccc3)CS[C@H]12)c1csc(N)n1)C(=O)O [CEFTAZIDIME]: No
CC1(C)S[C@@H]2[C@H](NC(=O)[C@H](N)c3ccccc3)C(=O)N2[C@H]1C(=O)O: Yes
Cc1nnc(SCC2=C(C(=O)O)N3C(=O)[C@@H](NC(=O)Cn4cnnn4)[C@H]3SC2)s1 [CEFAZOLIN]: No
CO/N=C(\C(=O)N[C@@H]1C(=O)N2C(C(=O)O)=C(COC(C)=O)CS[C@H]12)c1csc(N)n1 [CEFOTAXIME]: No

These entries and their values trace back to ChEMBL document CHEMBL1255252.
